Recorded normalized growth values for a group of molecules are listed next.
- Protocol summary: chemical genetic growth profiling, strain panel (AID 1159580);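 note: tested at 20 µM; growth read once vehicle control cultures reached saturation at 30 °C; 1 = growth at the plate median or of vehicle wells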
- Condition notes: S. cerevisiae deletion strains, growth OD, locus YOR329C, strain SCD5, stronger effect = lower value
Hit rate of the full screen: of about 5,500 compounds, about 2,000 (36%) were called active. Not shown: some 18% with an inconclusive outcome. The list shows a part of the results.

Examples from the recorded data:
- Molecule: "Cc1nc(-c2cccnc2)nc(NCc2ccccc2)c1Cl"
  normalized growth: "0.948 (inactive)"
- Molecule: "O=C(CSCc1csc2ccccc12)Nc1ccc(F)c(Cl)c1"
  normalized growth: "0.982 (inactive)"
- Molecule: "CC(C)Cc1ccc(C(C)C(=O)Nc2nn(C)c3ccccc23)cc1 (centres undefined)"
  normalized growth: "0.99 (inactive)"

Now let's try a different one.
Inquiry: Looking for the measured normalized growth of S=C(NNC(=S)NC1CC2C=CC1C2)Nc1ccc(Br)c(Cl)c1 (centres undefined) , can you help?
Reply text: 0.993 (inactive)

---

- Protocol summary: chemical genetic growth profiling, strain panel (AID 1159580);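 note: tested at 20 µM; growth read once vehicle control cultures reached saturation at 30 °C; 1 = growth at the plate median or of vehicle wells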
- Condition notes: S. cerevisiae deletion strains, growth OD, locus YIL125W, strain kgd1
About 2,000 (36%) of roughly 5,500 compounds were called active. Roughly 18% stayed inconclusive and do not appear here. No stated cut-off is given here; in the data, active means normalized growth mostly below about 0.91 (no sharp cut-off); inconclusive means no clear call, values can overlap the other calls; inactive means mostly above about 0.92. This is one part of the list. Where a SMILES comes first, the peptide text is derived from it. Bridges are numbered along the chain shown (N, C = ends). [ ]: non-standard residue; d: D form. The star is where a group is joined. ξ: configuration not given here. ξDab(CH2SO3H) = NC(CCNCS(=O)(=O)O)C(=O)O; Heptanoyl(6-Me) = CC(C)CCCCC(=O)*; Dab = NCC[CH](N)C(=O)O
Assign a class; possible classes are t for active, f for inactive

Example entries and their recorded answers appear below.
- Compound: "CCC(C)C1NC(=O)C(CCNCS(=O)(=O)O)NC(=O)C(NC(=O)C(CCNCS(=O)(=O)O)NC(=O)C(NC(=O)C(CCNCS(=O)(=O)O)NC(=O)CCCCC(C)C)C(C)O)CCNC(=O)C(C(C)O)NC(=O)C(CCNCS(=O)(=O)O)NC(=O)C(CCNCS(=O)(=O)O)NC(=O)C(C(C)CC)NC1=O (stereo not drawn) ({Heptanoyl(6-Me)}-[ξDab(CH2SO3H)]T[ξDab(CH2SO3H)][Dab][ξDab(CH2SO3H)]II[ξDab(CH2SO3H)][ξDab(CH2SO3H)]T; lactam 4-C; configuration not given here)"
  Assigned category: "f"
- Compound: "OC(CCN1CCCCC1)(c1ccccc1)C1CCCCC1 (stereo not drawn)"
  Assigned category: "f"

Inquiry: Could you check what this test reported for COC(=O)C[C@H]1C(C)(C)C(=O)[C@@H]2CC3C4=CC(=O)O[C@@H](c5ccoc5)[C@]4(C)CCC3[C@@]1(C)C2=O (stereo partly drawn) ?
Reply text: f

Inquiry: Could you check what this test reported for C#C[C@]1(OC(C)=O)CCC2C3CCC4=CC(=O)CC[C@@H]4C3CC[C@@]21C (stereo partly drawn) ?
Reply text: f

Inquiry: Could you check what this test reported for `C/C=C1\[C@H]2C=C(C)C[C@]1(N)c1ccc(=O)[nH]c1C2` ?
Reply text: f

Inquiry: Could you check what this test reported for `COc1ccc2c(c1)c(CC(=O)O)c(C)n2C(=O)c1ccc(Cl)cc1` ?
Reply text: f
